protocol_text: 24 hr in-vivo study: meloxicam plasma concentration and pharmacokinetics after oral (gavage) administration to male rats
setup_conditions: male, Sprague-Dawley, rat, plasma, po, 1 mg/kg
observation_type: concentration at 24 hour
Mention the unit after the number when you answer.

Recorded result, Cc1cnc(NC(=O)C2=C(O)c3ccccc3S(=O)(=O)N2C)s1 [Meloxicam, reference compound] , concentration at 24 hour: 240 ng/mL

----------
protocol_text: 4 hr in-vivo study: meloxicam plasma concentration after oral delivery to rats
setup_conditions: rat, time 30 min
meloxicam plasma concentration class ranges: label 0 = under 20 µg/mL, label 1 = from 20 µg/mL up to 30 µg/mL, label 2 = 30 µg/mL and over

Tag the class for `Cc1cnc(NC(=O)C2=C(O)c3ccccc3S(=O)(=O)N2C)s1.O=C(O)CC(=O)O` label 1

----------
protocol_text: 4 hr in-vivo study: meloxicam plasma concentration after oral delivery to rats
setup_conditions: rat, time 60 min
Please note: class 1 applies when meloxicam plasma concentration is 30 µg/mL or greater, and class 0 applies otherwise.

Given Cc1cnc(NC(=O)C2=C(O)c3ccccc3S(=O)(=O)N2C)s1.Cc1cnc(NC(=O)C2=C(O)c3ccccc3S(=O)(=O)N2C)s1.O=C(O)C[C@H](O)C(=O)O [Cocrystal 71, Meloxicam: L-Malic Acid Cocrystal (2:1)] , state whether its meloxicam plasma concentration is at least 30 µg/mL. class 1

Could you verify whether the entry Cc1cnc(NC(=O)C2=C(O)c3ccccc3S(=O)(=O)N2C)s1.O=C(O)c1ccccc1O [Cocrystal 88] shows meloxicam plasma concentration of no less than 30 µg/mL? class 1

Reported meloxicam plasma concentration at or above 30 µg/mL? Cc1cnc(NC(=O)C2=C(O)c3ccccc3S(=O)(=O)N2C)s1.Cc1cnc(NC(=O)C2=C(O)c3ccccc3S(=O)(=O)N2C)s1.O=C(O)CCC(=O)O [Cocrystal 144, Meloxicam:Succinic Acid Cocrystal (2:1)] class 1

Tell me whether meloxicam plasma concentration is at least 30 µg/mL here: Cc1cnc(NC(=O)C2=C(O)c3ccccc3S(=O)(=O)N2C)s1.O=C(O)CCc1ccccc1 [Cocrystal 164] class 0

Determine whether measured meloxicam plasma concentration meets or exceeds 30 µg/mL for Cc1cnc(NC(=O)C2=C(O)c3ccccc3S(=O)(=O)N2C)s1.Cc1cnc(NC(=O)C2=C(O)c3ccccc3S(=O)(=O)N2C)s1.O=C(O)CC(O)C(=O)O [Cocrystal 154, Meloxicam:DL-Malic Acid Cocrystal (2:1)] class 0

Given Cc1cnc(NC(=O)C2=C(O)c3ccccc3S(=O)(=O)N2C)s1.O=C(O)CO [Cocrystal 28, Meloxicam:Glycolic Acid Cocrystal (1:1)] , state whether its meloxicam plasma concentration is at least 30 µg/mL. class 0

Decide: is the reported value of meloxicam plasma concentration for Cc1cnc(NC(=O)C2=C(O)c3ccccc3S(=O)(=O)N2C)s1.Cc1cnc(NC(=O)C2=C(O)c3ccccc3S(=O)(=O)N2C)s1.O=C(O)/C=C/C(=O)O [Cocrystal 143, Meloxicam:Fumaric Acid Cocrystal (2:1)] equal to or greater than 30 µg/mL? class 0

Please indicate if the recorded meloxicam plasma concentration for Cc1cnc(NC(=O)C2=C(O)c3ccccc3S(=O)(=O)N2C)s1.O=C(O)CCCC(=O)O [Cocrystal 92, Meloxicam:Glutaric Acid Cocrystal (1:1)] meets or exceeds 30 µg/mL. class 0

----------
Listed here: items and their measured Cmax (peak plasma concentration).
protocol_text: 24 hr in-vivo study: meloxicam plasma concentration and pharmacokinetics after oral (gavage) administration to male rats
setup_conditions: male rats, 1 mg/kg oral, mean N = 5
Express your answer in ng/mL, writing the number without its unit.

In [3]: df
Out[3]:
                              line_notation                  observation_type  output_unit  endpoint_result
0  Cc1cnc(NC(=O)C2=C(O)c3ccccc3S(=O)(=O)N2C)s1.O=C(O)c1ccccc1O  Cmax (peak plasma concentration)        ng/mL             2230
1  Cc1cnc(NC(=O)C2=C(O)c3ccccc3S(=O)(=O)N2C)s1.Cc1cnc(NC(=O)C2=C(O)c3ccccc3S(=O)(=O)N2C)s1.O=C(O)CCC(=O)O  Cmax (peak plasma concentration)        ng/mL             1780
2  Cc1cnc(NC(=O)C2=C(O)c3ccccc3S(=O)(=O)N2C)s1.O=C(O)c1ccc2ccccc2c1O  Cmax (peak plasma concentration)        ng/mL             4150

# compound `Cc1cnc(NC(=O)C2=C(O)c3ccccc3S(=O)(=O)N2C)s1.O=C(O)/C=C\C(=O)O` ; its Cmax (peak plasma concentration) = 1490

----------
protocol_text: 24 hr in-vivo study: meloxicam plasma concentration and pharmacokinetics after oral (gavage) administration to male rats
setup_conditions: male, Sprague-Dawley, rat, plasma, po, 1 mg/kg
observation_type: MRT (h)
Numbers only; they are read as h.

What the record says about Cc1cnc(NC(=O)C2=C(O)c3ccccc3S(=O)(=O)N2C)s1 [Meloxicam, reference compound] : MRT is 21.8

----------
protocol_text: 24 hr in-vivo study: meloxicam plasma concentration and pharmacokinetics after oral (gavage) administration to male rats
setup_conditions: male, Sprague-Dawley, rat, plasma, po, 1 mg/kg
observation_type: concentration at 4 hour (ng/mL)
# unit: ng/mL | format: bare number

// recorded concentration at 4 hour for Cc1cnc(NC(=O)C2=C(O)c3ccccc3S(=O)(=O)N2C)s1 [Meloxicam, reference compound] : 540

----------
protocol_text: 4 hr in-vivo study: meloxicam plasma concentration after oral delivery to rats
setup_conditions: male, Sprague-Dawley, plasma, 1 mg/kg, rat, time 15 min
observation_type: concentration at 15 min (ng/mL)
Give the quantity in ng/mL, number only.

Record Cc1cnc(NC(=O)C2=C(O)c3ccccc3S(=O)(=O)N2C)s1 [Meloxicam, reference compound] , field concentration at 15 min: 8190

----------
protocol_text: 4 hr in-vivo study: meloxicam plasma concentration after oral delivery to rats
setup_conditions: rat, time 60 min
// values below are reported meloxicam plasma concentration
Please respond with the number in µg/mL and leave the unit unwritten.

>>> print(df.to_string())
                                   molecule  endpoint_result
0  Cc1cnc(NC(=O)C2=C(O)c3ccccc3S(=O)(=O)N2C)s1.O=C(O)c1ccccc1 [Cocrystal 153, Meloxicam:Benzoic Acid Cocrystal (1:1)]            28.11
1  Cc1cnc(NC(=O)C2=C(O)c3ccccc3S(=O)(=O)N2C)s1.O=C(O)c1ccc2ccccc2c1O [Cocrystal 76]            44.60

Please look at the following molecule next.
Just so you know, measured meloxicam plasma concentration for Cc1cnc(NC(=O)C2=C(O)c3ccccc3S(=O)(=O)N2C)s1.O=C(O)/C=C\C(=O)O [Cocrystal 21, Meloxicam:Maleic Acid Cocrystal (1:1)] came out at 32.84

----------
protocol_text: 4 hr in-vivo study: meloxicam plasma concentration after oral delivery to rats
setup_conditions: rat, time 120 min
observation_type: meloxicam plasma concentration (µg/mL)
The answer is to be given in µg/mL; state only the numeric part.

molecule	observation_type	endpoint_result
Cc1cnc(NC(=O)C2=C(O)c3ccccc3S(=O)(=O)N2C)s1.O=C(O)c1ccccc1O [Cocrystal 88]	meloxicam plasma concentration	40.50
Cc1cnc(NC(=O)C2=C(O)c3ccccc3S(=O)(=O)N2C)s1.O=C(O)c1ccc2ccccc2c1O [Cocrystal 76]	meloxicam plasma concentration	46.24
Cc1cnc(NC(=O)C2=C(O)c3ccccc3S(=O)(=O)N2C)s1.Cc1cnc(NC(=O)C2=C(O)c3ccccc3S(=O)(=O)N2C)s1.O=C(O)CCC(=O)O [Cocrystal 144, Meloxicam:Succinic Acid Cocrystal (2:1)]	meloxicam plasma concentration	44.02
Cc1cnc(NC(=O)C2=C(O)c3ccccc3S(=O)(=O)N2C)s1.O=C(O)CCc1ccccc1 [Cocrystal 164]	meloxicam plasma concentration	25.918
Cc1cnc(NC(=O)C2=C(O)c3ccccc3S(=O)(=O)N2C)s1.O=C(O)/C=C\C(=O)O [Cocrystal 21, Meloxicam:Maleic Acid Cocrystal (1:1)]	meloxicam plasma concentration	35.02
Cc1cnc(NC(=O)C2=C(O)c3ccccc3S(=O)(=O)N2C)s1.O=C(O)CC(=O)O [Cocrystal 22, Meloxicam:Malonic Acid Cocrystal (1:1)]	meloxicam plasma concentration	29.57
Cc1cnc(NC(=O)C2=C(O)c3ccccc3S(=O)(=O)N2C)s1.O=C(O)CO [Cocrystal 28, Meloxicam:Glycolic Acid Cocrystal (1:1)]	meloxicam plasma concentration	20.77
Cc1cnc(NC(=O)C2=C(O)c3ccccc3S(=O)(=O)N2C)s1.Cc1cnc(NC(=O)C2=C(O)c3ccccc3S(=O)(=O)N2C)s1.O=C(O)CCCCC(=O)O [Cocrystal 152, Meloxicam:Adipic Acid Cocrystal (2:1)]	meloxicam plasma concentration	38.23

# evaluate next
Looking up Cc1cnc(NC(=O)C2=C(O)c3ccccc3S(=O)(=O)N2C)s1.Cc1cnc(NC(=O)C2=C(O)c3ccccc3S(=O)(=O)N2C)s1.O=C(O)/C=C/C(=O)O [Cocrystal 143, Meloxicam:Fumaric Acid Cocrystal (2:1)] , I see its meloxicam plasma concentration listed as 20.93

----------
The following compounds are shown together with reported meloxicam plasma concentration values.
protocol_text: 4 hr in-vivo study: meloxicam plasma concentration after oral delivery to rats
setup_conditions: rat, time 30 min
Reply with the number and its unit after it.

The reported meloxicam plasma concentration of the compound `Cc1cnc(NC(=O)C2=C(O)c3ccccc3S(=O)(=O)N2C)s1.O=C(O)/C=C\C(=O)O` was 26.13 µg/mL

Form: compound = `Cc1cnc(NC(=O)C2=C(O)c3ccccc3S(=O)(=O)N2C)s1.O=C(O)CCCC(=O)O` ; meloxicam plasma concentration = 13.16 µg/mL

Sample `Cc1cnc(NC(=O)C2=C(O)c3ccccc3S(=O)(=O)N2C)s1.Cc1cnc(NC(=O)C2=C(O)c3ccccc3S(=O)(=O)N2C)s1.O=C(O)CC(O)C(=O)O` ; meloxicam plasma concentration observed: 16.59 µg/mL

Per the record, `Cc1cnc(NC(=O)C2=C(O)c3ccccc3S(=O)(=O)N2C)s1.Cc1cnc(NC(=O)C2=C(O)c3ccccc3S(=O)(=O)N2C)s1.O=C(O)CCCCC(=O)O` has meloxicam plasma concentration of 22.85 µg/mL

Form: compound = `Cc1cnc(NC(=O)C2=C(O)c3ccccc3S(=O)(=O)N2C)s1.Cc1cnc(NC(=O)C2=C(O)c3ccccc3S(=O)(=O)N2C)s1.O=C(O)C[C@H](O)C(=O)O` ; meloxicam plasma concentration = 32.05 µg/mL

So, `Cc1cnc(NC(=O)C2=C(O)c3ccccc3S(=O)(=O)N2C)s1.O=C(O)c1ccccc1` ? Its meloxicam plasma concentration was 25.88 µg/mL

What the record says about `Cc1cnc(NC(=O)C2=C(O)c3ccccc3S(=O)(=O)N2C)s1.O=C(O)CO` : meloxicam plasma concentration is 16.88 µg/mL

The recorded meloxicam plasma concentration for entry `Cc1cnc(NC(=O)C2=C(O)c3ccccc3S(=O)(=O)N2C)s1.O=C(O)CCc1ccccc1` equals 11.42 µg/mL

Lab note: measured meloxicam plasma concentration of `Cc1cnc(NC(=O)C2=C(O)c3ccccc3S(=O)(=O)N2C)s1.O=C(O)c1ccc2ccccc2c1O` was 39.24 µg/mL

For this compound ( `Cc1cnc(NC(=O)C2=C(O)c3ccccc3S(=O)(=O)N2C)s1.O=C(O)c1ccccc1O` ), measured meloxicam plasma concentration is 38.19 µg/mL

Value of measured meloxicam plasma concentration for the entry `Cc1cnc(NC(=O)C2=C(O)c3ccccc3S(=O)(=O)N2C)s1.Cc1cnc(NC(=O)C2=C(O)c3ccccc3S(=O)(=O)N2C)s1.O=C(O)/C=C/C(=O)O` : 6.69 µg/mL
